- Experiment Summary: Confirmatory qHTS to identify inhibitors of SARS-CoV-2 cell entry (AID 1645844); further: nearly all actives have a fitted effect of over 45% in size
- Measurement Conditions: SARS-CoV-2 pseudotyped particle cell entry, luciferase; series mostly up to 57.2 µM
Results filed as inconclusive are left out. The source made the active and inactive calls. The call rests on the fitted dose curve.
Labels: TRUE = active, FALSE = inactive

Compound	Class Name
Cc1ccc(C(N)=O)cc1Nc1nccc(-c2cn(C(C)C)c3cnccc23)n1	TRUE
CC(=O)c1c(C)c2cnc(Nc3ccc(N4CCNCC4)cn3)nc2n(C2CCCC2)c1=O	TRUE
CCCS(=O)(=O)Nc1ccc(F)c(C(=O)c2c[nH]c3ncc(-c4ccc(Cl)cc4)cc23)c1F	TRUE
O=C(O)c1ccc2c(c1)nc(Nc1cccc(Cl)c1)c1ccncc12	TRUE
Cc1n[nH]c(C)c1Cc1sc2c(c1C(=O)N1C[C@H](O)CO1)c(=O)n(C)c(=O)n2CC(C)C	TRUE
CCc1c(C(=O)C(N)=O)c2c(OCC(=O)O)cccc2n1Cc1ccccc1	FALSE
N#CCNC(=O)c1ccc(-c2ccnc(Nc3ccc(N4CCOCC4)cc3)n2)cc1	TRUE
O=c1[nH]c(-c2ccc(C(F)(F)F)cc2)nc2c1CSCC2	TRUE
CC(=O)Nc1ccc([C@H](C)C(=O)Nc2ncc(C(C)C)s2)cc1	TRUE
COc1cc2nccc(Oc3ccc(NC(=O)C4(C(=O)Nc5ccc(F)cc5)CC4)cc3)c2cc1OC	TRUE
CS(=O)(=O)c1cccc(CNc2nc(Nc3ccc4c(c3)CCC(=O)N4)ncc2C(F)(F)F)c1	TRUE
O=C(Nc1ccncc1)C(=O)c1cn(Cc2ccc(Cl)cc2)c2ccccc12	TRUE
COc1cc([C@@H]2c3cc4c(cc3[C@@H](O)C3COC(=O)C32)OCO4)cc(OC)c1O (stereo not given in full)	TRUE
COc1cc(Nc2ncc3c(n2)-c2ccc(Cl)cc2C(c2c(F)cccc2OC)=NC3)ccc1C(=O)O	TRUE
CNC(=O)c1cc(Oc2ccc(NC(=O)Nc3ccc(Cl)c(C(F)(F)F)c3)c(F)c2)ccn1	TRUE
